// values below are reported GI50
- System: SF-295
- TEST_NAME: NCI tumour cell line growth inhibition, 48 h
Active and inactive are the calls of the source. No stated cut-off is given here; in the data, active = GI50 up to about 1.1 µM and inactive = higher.

Examples with answers:
MOLECULE	SYSTEM_NAME	GI50
C=C1C(=O)O[C@H]2[C@H]1CC(=O)/C(C)=C/CC[C@@]1(C)O[C@@H]21	SF-295	16.2 µM (inactive)
C=C1C(=O)C23[C@H](O)C1CC[C@H]2[C@]12COC3(O)[C@@H](O)[C@@H]1C(C)(C)CC[C@@H]2O	SF-295	17.6 µM (inactive)
C[N+](C)(C)CC(=O)N/N=C/c1oc(-c2c(O)ccc3ccccc23)c(-c2c(O)ccc3ccccc23)c1[N+](=O)[O-]	SF-295	17.1 µM (inactive)
Cc1ncc([N+](=O)[O-])n1CCN(C)CCCCn1ccnc1[N+](=O)[O-]	SF-295	> 100 µM (inactive)
Cc1cc2oc(=O)c(Cl)c(Cl)c2c(C)c1Cl	SF-295	14.4 µM (inactive)

*Q* Complete the entry with GI50 for COc1ccc(/C=N/n2c(-c3ccccc3)n[nH]c2=O)c(OC)c1
*A* 32.7 µM (inactive)

*Q* Complete the entry with GI50 for OCC(O)C(O)C(O)C(O)c1nc2cc(Cl)ccc2[nH]1 (stereo not given)
*A* 28.8 µM (inactive)

*Q* Complete the entry with GI50 for N#Cc1c(-c2ccccc2)cc(-c2cccs2)c(C#N)c1N
*A* > 100 µM (inactive)
